assay: Pharmacokinetic assessment of plasma concentrations (LC-MS/MS, non-compartmental analysis) after mono/dual and triple therapy; settings: male, human, plasma, oral, 10 mg, Cmax, geometric least square mean, ilaprazole monotherapy, period 1 of part 1; N = 13
measure: Cmax (ng/mL)
Answers are plain numbers, in ng/mL.

### Prompt Please give the measured Cmax for this molecule: COc1ccnc(C[S+]([O-])c2nc3cc(-n4cccc4)ccc3[nH]2)c1C (stereo not shown)
### Response 447

* * *

assay: Pharmacokinetic assessment of plasma concentrations (LC-MS/MS, non-compartmental analysis) after mono/dual and triple therapy; conditions: male, human, plasma, oral, 10 mg, AUCinf, geometric least square mean, ilaprazole monotherapy, period 1 of part 1; N = 13
measure: AUC(0-inf)
Give the figure together with its unit, number first.

### Prompt Please give the measured AUC(0-inf) for this molecule: COc1ccnc(C[S+]([O-])c2nc3cc(-n4cccc4)ccc3[nH]2)c1C (stereo not shown)
### Response 3220 ng·h/mL

* * *

assay: Pharmacokinetic assessment of plasma concentrations (LC-MS/MS, non-compartmental analysis) after mono/dual and triple therapy; conditions: male, human, plasma, oral, AUClast, geometric least square mean, ilaprazole in triple therapy, period 2 of part 1; N = 13
measure: AUC(0-t)

### Prompt Please give the measured AUC(0-t) for this compound: COc1ccnc(C[S+]([O-])c2nc3cc(-n4cccc4)ccc3[nH]2)c1C (stereo not shown)
### Response 3350 ng·h/mL

* * *

assay: Pharmacokinetic assessment of plasma concentrations (LC-MS/MS, non-compartmental analysis) after mono/dual and triple therapy; conditions: male, human, plasma, oral, Cmax, ilaprazole in triple therapy, period 2 of part 1; N = 13; arithmetic mean (SD)
measure: Cmax (ng/mL)
Answers are plain numbers, in ng/mL.

### Prompt Please give the measured Cmax for this molecule: COc1ccnc(C[S+]([O-])c2nc3cc(-n4cccc4)ccc3[nH]2)c1C (stereo not shown)
### Response 446

* * *

Can you tell me AUC(0-t) for the items I'm about to list?
assay: Pharmacokinetic assessment of plasma concentrations (LC-MS/MS, non-compartmental analysis) after mono/dual and triple therapy; settings: male, human, plasma, oral, AUClast, geometric least square mean, triple therapy, period 2 of part 2; N = 15
Give bare numbers, in ng·h/mL.

compound | AUC(0-t), ng·h/mL
CC[C@H]1OC(=O)[C@H](C)[C@@H](O[C@H]2C[C@@](C)(OC)[C@@H](O)[C@H](C)O2)[C@H](C)[C@@H](O[C@@H]2O[C@H](C)C[C@H](N(C)C)[C@H]2O)[C@](C)(OC)C[C@@H](C)C(=O)[C@H](C)[C@@H](O)[C@]1(C)O [Clarithromycin, clarithromycin] | 15300

// below: AUC(0-t) requested for another compound
### Prompt Please give the measured AUC(0-t) for this compound: CC1(C)S[C@@H]2[C@H](NC(=O)[C@H](N)c3ccc(O)cc3)C(=O)N2[C@H]1C(=O)O [Amoxicillin, amoxicillin]
### Response 26200

* * *

test: Pharmacokinetic assessment of plasma concentrations (LC-MS/MS, non-compartmental analysis) after mono/dual and triple therapy; conditions: male, human, plasma, oral, mean AUClast, ilaprazole in triple therapy
measure: AUC(0-t) (ng·h/mL)
Answers are plain numbers, in ng·h/mL.

### Prompt Please give the measured AUC(0-t) for this molecule: COc1ccnc(C[S+]([O-])c2nc3cc(-n4cccc4)ccc3[nH]2)c1C (stereo not shown)
### Response 3540

Hey, just so you know, these numbers are from paper PMC6096703.
